measured-target: T1, human ILT4-ECD protein (human, UniProt Q8N423 22-460)
T1 construct: also called HuILT4; LILRB2 (ILT4)
T1 sequence (Q8N423 other isoform, or with tags, fused parts or gaps limits assumed): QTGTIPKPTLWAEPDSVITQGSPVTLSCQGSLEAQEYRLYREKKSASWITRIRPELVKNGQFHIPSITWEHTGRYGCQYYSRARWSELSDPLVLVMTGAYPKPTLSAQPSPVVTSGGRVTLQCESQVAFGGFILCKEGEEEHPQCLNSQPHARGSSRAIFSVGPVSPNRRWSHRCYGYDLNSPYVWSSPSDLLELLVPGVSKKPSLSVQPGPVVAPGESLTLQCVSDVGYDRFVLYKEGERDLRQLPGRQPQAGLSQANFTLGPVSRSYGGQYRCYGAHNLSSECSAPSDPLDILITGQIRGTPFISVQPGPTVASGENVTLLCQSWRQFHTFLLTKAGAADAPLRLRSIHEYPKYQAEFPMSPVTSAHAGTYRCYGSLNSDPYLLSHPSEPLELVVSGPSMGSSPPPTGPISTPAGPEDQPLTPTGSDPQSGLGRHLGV
assay-overview: BLI (Octet RED96e), antibody on AHC biosensor, HuILT4 at 100/50/25 nM
assay-readout: kon (M⁻¹ s⁻¹)
One number for each entry, in M⁻¹ s⁻¹.

IN: Recorded kon of PR302951 (antibody, human IgG1, kappa, V domains shown, IgG1; also called PR302951 (IgG1)) VH: EVQLLESGGGLVQPGGSLRLSCAASRFTFSTYAMSWVRQAPGKGLEWVSSISGSGFNTYYADSVKGRFTISSDSSKNTLYLQMNSLRAEDTAVYYCAKDRQWLVSSFDYWGQGTLVTVSS VL: DIQMTQSPSSLSASVGDRVTITCQASQDISNYLNWYQQKPGKAPKLLIYDASNLETGVPSRFSGSGSGTDFTFTISSLQPEDIATYYCQQYDNLITFGQGTRLEIKR , please.
OUT: 915000
